Parameter: IC50. Scope: all listed entries.
System: A-673 cells
Assay: Cell viability, crystal violet staining
Format: cell-based
Settings: Homo sapiens, A673, cell viability, read-out: A-673 IC50 (nM) Cell viability

Example entries begin here.
CN(c1ccc(-c2ccc(-c3cn[nH]c3)cc2O)nn1)[C@@H]1C[C@H]2CC[C@@H](C1)N2 [compound 138] :: 10 to 100 nM
COc1cncc(-c2ccc(-c3ccc(N(C)[C@H]4C[C@]5(C)CC[C@](C)(C4)N5)nn3)c(O)c2)c1 [compound 211] :: 251 to 500 nM
CN(c1ccc(-c2ccc(-c3cn[nH]c3)cc2O)nn1)[C@H]1C[C@H]2CNC[C@H]2C1 [compound 142] :: > 1000 nM
COCCN(c1ccc(-c2ccc(-c3cn[nH]c3)cc2O)nn1)C1CC(C)(C)NC(C)(C)C1 [compound 133] :: > 1000 nM

Would you kindly look at the next entry?
Quick note, IC50 for CN(c1cnc(-c2ccc(-c3cn[nH]c3)cc2O)nc1)C1CC(C)(C)NC(C)(C)C1 [compound 134] landed at > 1000 nM
